Tested on: HSP27 mRNA in A2058 cells (EGFR-)
method_description: HSP27 gene silencing in A2058 cells
Assay type: cell-based, human
condition_details: titrated + fixed 4000 nM SO1861-EMCH, nM of HSP27BNA or of conjugate
endpoint_label: IC50
Be sure to follow the number with its unit.

Query: Request the reported IC50 associated with HSP27BNA: antisense BNA oligo targeting HSP27 mRNA, sequence 5′-GGCacagccagtgGCG-3′ (antisense GGCACAGCCAGTGGCG; BNA modifications)
Result: 10 nM

====

System: HSP27 mRNA in A431 cells (EGFR++)
method_description: HSP27 gene silencing in A431 cells
Assay type: cell-based, human
condition_details: titrated + fixed 4000 nM SO1861-EMCH, nM of HSP27BNA or of conjugate
endpoint_label: IC50 (nM)
Express it in nM; write the number only.

Query: Would you kindly share the measured IC50 for HSP27BNA: antisense BNA oligo targeting HSP27 mRNA, sequence 5′-GGCacagccagtgGCG-3′ (antisense GGCACAGCCAGTGGCG; BNA modifications) ?
Result: 10
